The measured values listed here are drawn from paper PMC11905058.

Tested on: Staphylococcus epidermidis [KCTC 1917]
Type: cell-based
Assay Context: KCTC 1917, 24 h
No end group written: not given here.
Entries annotated with measured Minimum inhibitory concentration (MIC), Staphylococcus epidermidis [KCTC 1917]

Worked examples, 10 substances total:
[
  {
    "Substance": "LSKGGFKGKPERAMAHHLKNIRKKLSKSIMKS [LP6]",
    "Endpoint Result": ">128 µg/mL"
  },
  {
    "Substance": "MANPVNSIKRIIKKLKKERKCKPNL [LP18]",
    "Endpoint Result": ">128 µg/mL"
  },
  {
    "Substance": "NITDYNKKKVRLLPRFIFPLG-NH2 [LP13]",
    "Endpoint Result": ">128 µg/mL"
  },
  {
    "Substance": "MKSINLKKVVKSIIKKILNSSF-NH2 [Hirunipin 2]",
    "Endpoint Result": "32 µg/mL"
  },
  {
    "Substance": "VLNVQSIMSWNKRVGGMILNLKT [LP11]",
    "Endpoint Result": ">128 µg/mL"
  },
  {
    "Substance": "YFKIIKFLPKALKCLLPQKHKEHGNL-NH2 [Hirunipin 3]",
    "Endpoint Result": "64 µg/mL"
  },
  {
    "Substance": "QKFNGKSYALAKKMKKRQVKFLNRILDQL [LP19]",
    "Endpoint Result": ">128 µg/mL"
  },
  {
    "Substance": "LLAHVSKGFKLSMQKSKKPSLPIKT-NH2 [LP5]",
    "Endpoint Result": ">128 µg/mL"
  },
  {
    "Substance": "LLKKLLRSLIKPAIMKIINTPPQEKLQK-NH2 [Hirunipin 1]",
    "Endpoint Result": "32 µg/mL"
  },
  {
    "Substance": "PKKVRKSFKKLRNFSNKNSNIYGLPA [LP17]",
    "Endpoint Result": ">128 µg/mL"
  }
]

# query: Minimum inhibitory concentration (MIC), Staphylococcus epidermidis [KCTC 1917] of entry KKLLKKLEKISKKKKKDKKRGRGSPMTSYAILYDGA [LP10]
>128 µg/mL

Repeat for the following substance: LNTPRPELSISQRLLIKNFILII-NH2 [LP14]
>128 µg/mL

Repeat for the following substance: IIIIKMHKTRKEKTQSILSAPVGLLTTL [LP7]
>128 µg/mL

Repeat for the following substance: KLTPKPAKKVKKVVKF [LP1]
>128 µg/mL

====

Entries annotated with measured Minimum inhibitory concentration (MIC), Escherichia coli [KCTC 1682]
Test system: Escherichia coli [KCTC 1682]
Assay type: cell-based
Assay Context: KCTC 1682, 24 h
No end group written: not given here.

Quick check: Minimum inhibitory concentration (MIC), Escherichia coli [KCTC 1682] on Escherichia coli [KCTC 1682], item QKFNGKSYALAKKMKKRQVKFLNRILDQL [LP19] ?
>128 µg/mL

Repeat for the following substance: LLAHVSKGFKLSMQKSKKPSLPIKT-NH2 [LP5]
>128 µg/mL

Repeat for the following substance: MANPVNSIKRIIKKLKKERKCKPNL [LP18]
>128 µg/mL

Repeat for the following substance: LLKKLLRSLIKPAIMKIINTPPQEKLQK-NH2 [Hirunipin 1]
64 µg/mL

Repeat for the following substance: YFKIIKFLPKALKCLLPQKHKEHGNL-NH2 [Hirunipin 3]
128 µg/mL

Repeat for the following substance: NITDYNKKKVRLLPRFIFPLG-NH2 [LP13]
>128 µg/mL
